tested system: Ribosomal protein S6 kinase alpha-4 (Homo sapiens) (UniProt O75676);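 also: mean inhibition of MSK2, GSK PKIS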
Sequence (O75676 whole entry, looked up): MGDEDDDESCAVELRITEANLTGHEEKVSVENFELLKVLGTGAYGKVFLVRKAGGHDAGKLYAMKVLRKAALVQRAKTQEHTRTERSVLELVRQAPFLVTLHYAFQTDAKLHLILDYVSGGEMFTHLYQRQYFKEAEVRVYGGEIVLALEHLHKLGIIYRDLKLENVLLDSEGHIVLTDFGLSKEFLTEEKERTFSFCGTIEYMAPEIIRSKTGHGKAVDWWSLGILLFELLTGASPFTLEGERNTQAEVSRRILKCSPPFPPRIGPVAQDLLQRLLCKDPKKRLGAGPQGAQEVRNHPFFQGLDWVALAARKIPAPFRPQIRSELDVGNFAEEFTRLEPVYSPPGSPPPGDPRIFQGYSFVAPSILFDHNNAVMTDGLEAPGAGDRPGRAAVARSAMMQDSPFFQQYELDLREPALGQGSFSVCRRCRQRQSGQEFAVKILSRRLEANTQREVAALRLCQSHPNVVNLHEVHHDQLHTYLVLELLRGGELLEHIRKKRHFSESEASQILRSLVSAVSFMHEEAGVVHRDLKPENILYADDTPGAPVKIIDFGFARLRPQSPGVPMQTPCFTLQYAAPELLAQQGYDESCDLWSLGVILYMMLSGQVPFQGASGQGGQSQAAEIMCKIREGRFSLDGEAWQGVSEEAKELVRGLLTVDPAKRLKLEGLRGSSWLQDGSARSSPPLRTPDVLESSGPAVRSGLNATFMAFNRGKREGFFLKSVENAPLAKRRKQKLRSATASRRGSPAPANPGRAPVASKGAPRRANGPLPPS
assay conditions: at 1 µM
Measured inhibition by item
Numeric answer only, unit % assumed.

Check out these entries, answers already filled in.
Nc1nc(-c2ccc(F)cc2)c(-c2ccc3ncccc3n2)s1: 4.49
CS(=O)(=O)CCNCc1ccc(-c2ccc3ncnc(Nc4ccc(OCc5ccccc5)c(C(F)(F)F)c4)c3c2)o1: 0.65
c1cc(-c2cnn3nc(N4CCOCC4)ccc23)nc(NC2CC2)n1: 6.24
FC(F)(F)c1cccc(-c2nn3ncccc3c2-c2ccnc(Nc3ccc4c(c3)OCCO4)n2)c1: 3.51

Turning now to a further compound:
## Input Using known records, supply inhibition for O=C(O[C@H]1CN[C@H](C#Cc2cc3ncnc(Nc4ccc(Cc5ccccc5)cc4)c3s2)C1)N1CCOCC1
## Output 3.94
